Target: human TRPV3 receptors (Homo sapiens (Human))
Experiment: Calcium flux assay (FLIPR TETRA), inhibition of the 2-APB response
Conditions: recombinant HEK293 cells stably expressing TRPV3, Calcium-4 dye, 2-APB at its EC80
pIC50: −log10 of the molar value.
measured attribute: pIC50

See these solved cases before continuing.
[
  {
    "compound": "CC(C)[C@H](CO)NCc1nc(-c2cc(C(F)(F)F)cc(C(F)(F)F)c2)ccc1F [Example 22]",
    "measured attribute": "pIC50",
    "reported measurement": 5.89
  },
  {
    "compound": "CC(C)[C@H](CO)NCc1nc(-c2ccc(Cl)c(Cl)c2)ccc1F [Example 20]",
    "measured attribute": "pIC50",
    "reported measurement": 5.86
  },
  {
    "compound": "CC(C)[C@@H](NCc1nc(-c2ccc(C(F)(F)F)nc2)ccc1F)C(C)O (some centres unmarked) [Example 108]",
    "measured attribute": "pIC50",
    "reported measurement": 6.27
  }
]

P = CC(C)[C@H](CO)NCc1nc(/C=C/c2cccc(F)c2)ccc1F [Example 233]
Q = CC(C)[C@H](CO)NCc1nc(N2Cc3ccccc3C2)ccc1F [Example 71]
stdin: Hello, I am sorting some records. Could you say if P or Q has the smaller pIC50 value? Pick one; state its label.
stdout: P
(P: 6.42, Q: 6.80)

* * *

Target: human TRPV3 receptors (Homo sapiens (Human), UniProt Q8NET8)
Sequence (Q8NET8 whole entry): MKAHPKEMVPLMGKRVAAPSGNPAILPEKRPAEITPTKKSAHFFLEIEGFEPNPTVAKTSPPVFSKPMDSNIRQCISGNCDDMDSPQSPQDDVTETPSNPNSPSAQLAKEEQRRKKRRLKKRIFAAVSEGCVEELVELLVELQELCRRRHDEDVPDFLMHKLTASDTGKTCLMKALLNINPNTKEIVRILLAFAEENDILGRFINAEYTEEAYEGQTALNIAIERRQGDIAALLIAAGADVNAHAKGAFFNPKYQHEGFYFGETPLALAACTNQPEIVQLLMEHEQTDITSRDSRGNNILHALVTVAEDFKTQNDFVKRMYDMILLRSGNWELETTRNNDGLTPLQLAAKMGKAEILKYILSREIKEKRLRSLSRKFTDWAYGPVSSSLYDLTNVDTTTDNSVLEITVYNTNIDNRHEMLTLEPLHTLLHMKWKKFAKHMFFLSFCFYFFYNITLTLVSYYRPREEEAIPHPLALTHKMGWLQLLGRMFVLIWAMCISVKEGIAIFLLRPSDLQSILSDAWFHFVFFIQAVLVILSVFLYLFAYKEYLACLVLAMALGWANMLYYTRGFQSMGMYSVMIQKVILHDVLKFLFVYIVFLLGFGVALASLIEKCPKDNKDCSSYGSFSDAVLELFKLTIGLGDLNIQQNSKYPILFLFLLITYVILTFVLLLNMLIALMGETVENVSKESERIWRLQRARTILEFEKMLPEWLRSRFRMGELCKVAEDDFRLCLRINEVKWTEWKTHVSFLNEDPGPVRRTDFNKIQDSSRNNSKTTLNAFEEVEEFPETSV
Assay: Calcium flux assay (FLIPR TETRA), inhibition of the 2-APB response
Settings: recombinant HEK293 cells stably expressing TRPV3, Calcium-4 dye, 2-APB at its EC80
Description: (i) In Vitro Methods-Calcium Flux Assays: Experiments were conducted using the FLIPR^TETRA®. […] The intensity of the fluorescence was captured and digitally transferred to an interfaced PC. The peak increase in fluorescence over baseline (relative fluorescence units) was calculated and expressed as the percentage of the maximal 2-APB (2-aminoethoxyldiphenyl borate) response (in the absence of compound).
measured attribute: IC50 (µM)

[
  {
    "structure as smiles": "CC(C)[C@H](CO)NCc1nc(-c2cccc(Cl)c2)ccc1F",
    "experimental target": "human TRPV3 receptors (Homo sapiens (Human), UniProt Q8NET8)",
    "readout unit": "µM",
    "reported measurement": 1.84
  },
  {
    "structure as smiles": "CC[C@H](CO)NCc1ccnc(-c2ccc(C(F)(F)F)cc2)n1",
    "experimental target": "human TRPV3 receptors (Homo sapiens (Human), UniProt Q8NET8)",
    "readout unit": "µM",
    "reported measurement": 3.05
  },
  {
    "structure as smiles": "CC(C)[C@H](CO)NCc1nc(-c2cccc(N3CCCC3)c2)ccc1F",
    "experimental target": "human TRPV3 receptors (Homo sapiens (Human), UniProt Q8NET8)",
    "readout unit": "µM",
    "reported measurement": 0.48
  },
  {
    "structure as smiles": "CC(C)[C@H](CO)NCc1nc(-c2cccc(S(=O)(=O)N3CCOCC3)c2)ccc1F",
    "experimental target": "human TRPV3 receptors (Homo sapiens (Human), UniProt Q8NET8)",
    "readout unit": "µM",
    "reported measurement": 0.76
  },
  {
    "structure as smiles": "OCC1(NCc2cccc(-c3ccc(F)c(C(F)(F)F)c3)n2)CCCC1",
    "experimental target": "human TRPV3 receptors (Homo sapiens (Human), UniProt Q8NET8)",
    "readout unit": "µM",
    "reported measurement": 0.42
  }
]

1 = O=S(=O)(c1ccc(-c2nccc(CNC3(CO)CCCCC3)n2)cc1)C(F)(F)F
2 = C[C@H](CO)NCc1nc(-c2ccc(C(F)(F)F)cc2)ccc1F
stdin: Rank 1 against 2 by their IC50 values and give the higher one. Give the chosen item's label as your response.
stdout: 1
(1: 13.5 µM, 2: 1.64 µM)

P = C[C@@H](O)[C@@H](CO)NCc1ccnc(-c2ccc(C(F)(F)F)cc2)n1
Q = CCC[C@H](CO)NCc1nc(-c2ccc(C(F)(F)F)cc2)ccc1F
R = CC(C)[C@H](CO)NCc1nc(-c2ccc(F)c(F)c2F)ccc1F
S = CC(C)[C@H](CO)NCc1nc(N2CCc3c(F)cccc3C2)ccc1F
stdin: Reorder the items by IC50, least to greatest. Returns: the labels arranged in the requested order.
stdout: S, R, Q, P

A = CC(C)Oc1ccc(-c2ccc(F)c(CN[C@@H](CO)C(C)C)n2)cc1F
B = CC(C)[C@H](CO)NCc1cccc(-c2ccc(C(F)(F)F)nc2)n1
C = CC(C)[C@H](CO)NCc1nc(C2=CCC(F)(F)CC2)ccc1F
stdin: Hi! Can you put these in order of IC50, lowest number first? A ranking is expressed here by listing the labels in the requested order.
stdout: C, A, B
(C: 0.14 µM, A: 0.65 µM, B: 3.72 µM)
